Test system: MS2 coat protein
Assay: apparent KD of MS2 coat protein; designed switch direction (-1 OFF switch, 1 ON switch): -1; higher = weaker reporter binding
Settings: input ligand: none
Measured endpoint: apparent KD of MS2 coat protein (µM)

• GAAUUGUGAGGAUAUUAGUUGUACGUCAAUAGACGUAUAAGUGAGAAGGCACAUGAGGAUCACCCAUGUUCCUG [salish99_ex4_r4_401] (Eterna round: R97, puzzle: Exclusion 4) = 0.0194
• CUCAUUAGUCAGGAUAUCGUGUGGGUAAUUGUACGAGAAGGGACGACAUGAGGAUCACCCAUGUGGUCUUUGGG [JR_Ex6_Sub085] (Eterna round: R97, puzzle: Exclusion 6) = 0.165
• GAAAAUAGUGAGGAUAUAUCACGGAUACCCGAGAUAGAAGGCACUACAUGAGGAUCACCCAUGUUCGGGUGUCC [Areleon] (Eterna round: R97, puzzle: Exclusion 6) = 0.0793
• ACUGGUCGAGGAUAUGCAAUCGUGCUUCGGCACGUAAGAUCACAUGAGGAUCACCCAUGUAGAAGGCGACCAGU [E2/3-A2] (Eterna round: R97, puzzle: Exclusion 2) = 0.0212

###

System: MS2 coat protein
Experiment: apparent KD of MS2 coat protein; higher = weaker reporter binding
Details: Eterna round: R107; input ligand: theophylline 2 mM
Measured endpoint: apparent KD of MS2 coat protein

* CUAGACUGUGCGGCCGCCACUGGCUCAUCCUGCAUUACAUGAGGAUCACCCAUGUUGCGGCCUCCCAGGACCGGGCAUAGUCUGC [Riinzaa] | 734 nM
* ACAUGAGGAUCACCCAUGUAGCCUAGGGAAGGAGCGGCAUAAAAGCCAGGUAGGUCGCCCGCAUGAGGAUCACCCAUGUCAAGGA [Same State Arginine A GF7] | 74.9 nM
* CUAUAUAUAAGAAGGAGCGACAUGAGGAUCACCCAUGUCUACCACGUCGAAAGACGCUCAUGUCAGGUAGGUCGCUUAUAUAUAG [Astros-Eli-mod1] | 139 nM
* UACUUGCUGACGGCCGCCACUAGAACAUGAGGAUCACCCAUGUACCCGGUCCUACAUGGGAUGACUAGGACCGGGUCAGCAAGAU [(Trp1)-(Ms2)-(T)'-(M)'-(Trp2)_Design3] | 68.5 nM
* UGGGUACAUGAGGAUCACCCAUGUACUGAAGGAGCGAGAAUUAUCUCAGGUAGGUCGCAGACAUGAGGAUCACCCAUGUAGUGGG [Exclusion Arginine A GF 13] | 20 nM

###

Reported apparent KD of K4 kissing-loop reporter values for a set of sequences
System: K4 kissing-loop RNA reporter;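 further: bound reporter read as fluorescence of individual clusters on recovered sequencing chips by microscopy, with normalized cluster intensities fitted with a binding model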
Experiment: apparent KD of K4 kissing-loop reporter; higher = weaker reporter binding
Conditions: Eterna round: R107; input ligand: arginine 13.2 mM
Measured endpoint: apparent KD of K4 kissing-loop reporter (nM)

• UGUGAGCUGUCGACAAAAGUCGACUAAAAUGAGGAUAUGACGAAAGUCAGAAGGCAUCAAUAAUGGAGUGAUGUUCCUGCUCACU [FmnA 9 U30+A56] = 432
• ACUAUCAUUACGCAUGGAGUGAUGUUUCAGCGAGGACCGGUACGGCCGCCACUCGUUACGUGGUUAGAGCCAAUGUUCGAGAAGC [theeternabot_exclusion_KL_Trp_A_39] = 832
• UAGCUCUACAGAAGGAGCGACGUUCUUAGACAGUGAUGUUGUCUAUAGUGAAUAUAGGAACGUCAGGUAGGUCGCUGUAGAGCUA [Arg B SS t11] = 160
• CCAUUCAGUUACGAUACCAGUCUAAUAUAUUUGAUCAAAACCCUCGCCGAGUGAUGUUCGGACCCUUGGCAGCGUCUGGGACAGG [xxcetmullin] = 399
• GUGCGUAAGUGAUGUUUACGUCAGCUCCGCAAGGAUAUCCUGAUUAGGAGAAGGUGCGGGAACUAAAGACGCUCGUUCUAGCAGG [theeternabot_exclusion_KL_FMN_A_33] = 182
• AUGCGCGCGGCGGCCGCCACUCGCAUGAGAGUGAUGUUCUCGCCGGGCCCGCAAGGGCCCGGUGUGAGGACCGGGCCGGGCUGCG [#2 Same State - Tryptophan B Attempt #18 (HarryS)] = 0.441
• CAUGCCAUGAUCCUCCUGGUAUCUCCUGAUACCAGCGUGCUGACACGCCCUUGGCAGCAGGAGUCGAGAGUGAUGUUGUCGAGAA [KL-SSTheo-A9 #analogue] = 174
• UGAUACCAGACGGCCGCCACUCCCGUAAGUCAAAGACUUACGAAGAGAGUCGUCCAGUGAUGUUGGAGGACCGGGUCUGGUAUCU [FiskerMod 12 - Jieux - Exclusion - Tryptophan B] = 143
• AAGUGUGUGGCGGCCGCCACUAGAAUCCAGUGAUGUUGGAGUUAUCAUGUAAAUGAUAAUCAACAUAGGACCGGGCCAUAUAGAA [Same State - Tryptophan B (Freestyle 8)] = 377
• UGUGAUGAGUAGAGUGAUGUUUUGAAGGAUACCAGAGUGUUGUUAUUCCCUUGGCAGCUUGAGUGAUGUUUGAUGUUGUUGUUGU [rcrrmullin] = 221
• UAUAUAUGAUGUGAUACCAGUGAAAAGCCAGUGAUGUUGGUAGAACUGGUAUAUAAAUAACACCCUUGGCAGCACAAUCACGUAU [whbob_Ex_Theo_B_sa96] = 134
• CCAGGACGAUGAGGAUGAUGAAUUACUGAAGGAGCGCAUAUGGUUGCAGGUAGGUCGCGGUGAACAAGUAUAGUGAUGUUAUGCC [SSArgA.V] = 424
• UGCACGGGCUCGGCCGCCACUCCCGCGGGUCGCAAGGUCCGCUACUGAGUGAUGUUCGGUUGGAGGAGGACCGGGAGCCCGUGCA [#2 Exclusion - Tryptophan B Attempt #27 (HarryS)] = 110

Hello, the source for this data is the supplement of paper PMC9170038, in case you need it.
